# tested.target: T1, ToPif1 (wild type) (Thermus oshimai, UniProt K7RJ88 64-507)
# T1 sequence: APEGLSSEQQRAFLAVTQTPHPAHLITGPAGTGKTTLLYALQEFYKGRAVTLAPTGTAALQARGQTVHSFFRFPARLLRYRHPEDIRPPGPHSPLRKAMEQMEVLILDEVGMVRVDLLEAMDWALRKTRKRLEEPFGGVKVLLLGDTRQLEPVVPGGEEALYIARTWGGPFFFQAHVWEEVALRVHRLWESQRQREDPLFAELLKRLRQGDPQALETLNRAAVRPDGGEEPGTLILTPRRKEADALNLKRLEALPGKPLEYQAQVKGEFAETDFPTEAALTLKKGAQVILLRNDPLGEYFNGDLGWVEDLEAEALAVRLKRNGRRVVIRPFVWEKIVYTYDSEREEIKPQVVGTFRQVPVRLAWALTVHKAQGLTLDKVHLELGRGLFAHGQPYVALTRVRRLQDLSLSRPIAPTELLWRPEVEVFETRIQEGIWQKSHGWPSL
# measurement.notes: fluorescence anisotropy
measurement.kind: pKd
Give only the number. pKd is defined as minus log10 of concentration in molar units.

Problem: Query: pKd; subject: AGGGTGGGTGGGTGGG (structured_DNA) [G4CEB]
Result: 7.51
